Where do the numbers come from? From patent US8962846B2.

- Target System: hMC4-R (Homo sapiens)
- Sequence (P32245 whole entry): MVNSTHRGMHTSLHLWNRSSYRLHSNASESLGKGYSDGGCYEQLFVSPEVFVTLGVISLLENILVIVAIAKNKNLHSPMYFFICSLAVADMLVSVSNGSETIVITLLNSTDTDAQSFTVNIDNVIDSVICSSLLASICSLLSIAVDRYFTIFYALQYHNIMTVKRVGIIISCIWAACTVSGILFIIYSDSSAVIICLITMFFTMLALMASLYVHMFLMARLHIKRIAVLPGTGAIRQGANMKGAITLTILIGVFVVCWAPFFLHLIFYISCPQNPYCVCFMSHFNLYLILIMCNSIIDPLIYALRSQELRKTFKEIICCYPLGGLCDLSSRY
- Experimental Details: Transactivation test: melanocortin receptors (CRE-Luc luciferase), hMC4-R
- Condition Set: HEK293 transfected with pCRE-Luc and receptor; 10-point dose response from 10 μM; antagonist behaviour tested in presence of 1 nM NDP-MSH; 6 hours incubation
Reported Metric: pEC50
Scale note: pEC50 = -log10(concentration in M).

Answered cases to consult:
{"Compound": "CCCC(=O)C1(C2CCCCC2)CCN(C(=O)[C@@H](Cc2ccc(OC)cc2)NC(=O)NCCc2c[nH]nn2)CC1 [Example 3]", "Reported Metric": "pEC50", "Numeric Value": 7.30}
{"Compound": "CCOC(=O)C1(C2CCCCC2)CCN(C(=O)[C@@H](Cc2ccc(OC)cc2)NC(=S)NCCc2cn(C)cn2)CC1 [Example 8]", "Reported Metric": "pEC50", "Numeric Value": 7.30}
{"Compound": "CCOC(=O)C1(C2CCCCC2)CCN(C(=O)[C@@H](Cc2ccc(Cl)c(Cl)c2)NC(=O)NCCc2c[nH]cn2)CC1 [Example 5]", "Reported Metric": "pEC50", "Numeric Value": 7.82}
{"Compound": "CCOC(=O)C1(C2CCCCC2)CCN(C(=O)[C@@H](Cc2ccc(Cl)cc2Cl)NC(=O)NCCc2c[nH]cn2)CC1 [Example 9]", "Reported Metric": "pEC50", "Numeric Value": 8.70}
{"Compound": "CCCC(=O)C1(C2CCCCC2)CCN(C(=O)[C@@H](Cc2ccc(OC)cc2)NC(=O)NCCc2cn(C)cn2)CC1 [Example 2]", "Reported Metric": "pEC50", "Numeric Value": 7.30}
{"Compound": "CCOC(=O)C1(C2CCCCC2)CCN(C(=O)[C@@H](Cc2ccc(Cl)c(Cl)c2)NC(=O)NCCc2cncn2C)CC1 [Example 6]", "Reported Metric": "pEC50", "Numeric Value": 8.00}

IN: I'd like to know its pEC50. The compound in question is CCOC(=O)C1(C2CCCCC2)CCN(C(=O)[C@@H](Cc2ccc(OC)cc2)NC(=O)NCCCc2cnc[nH]2)CC1 [Example 4]
OUT: 7.70

IN: Same read-out for CCOC(=O)C1(C2CCCCC2)CCN(C(=O)[C@@H](Cc2ccc(OC)cc2)NC(=S)NCCCc2c[nH]cn2)CC1 [Example 7] ?
OUT: 7.30

IN: Same read-out for COc1ccc(CC(NC(=O)NCCc2c[nH]cn2)C(=O)N2CCC(C(=O)NC(C)(C)C)(C3CCCCC3)CC2)cc1 (stereo not drawn) [Example 1] ?
OUT: 7.22

----------
- Target System: hMC1-R (Homo sapiens, UniProt Q01726)
- Sequence (Q01726 whole entry): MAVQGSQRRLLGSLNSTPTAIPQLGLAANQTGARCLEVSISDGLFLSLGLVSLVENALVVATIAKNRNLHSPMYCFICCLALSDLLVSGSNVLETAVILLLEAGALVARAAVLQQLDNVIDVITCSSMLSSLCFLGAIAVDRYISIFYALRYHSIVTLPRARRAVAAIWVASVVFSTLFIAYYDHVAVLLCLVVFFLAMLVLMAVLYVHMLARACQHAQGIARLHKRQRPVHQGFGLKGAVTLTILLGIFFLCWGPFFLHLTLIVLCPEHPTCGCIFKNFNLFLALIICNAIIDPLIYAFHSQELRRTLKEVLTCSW
- Experimental Details: Transactivation test: melanocortin receptors (CRE-Luc luciferase), hMC1-R
- Condition Set: HEK293 transfected with pCRE-Luc and receptor; 10-point dose response from 10 μM; antagonist behaviour tested in presence of 1 nM NDP-MSH; 6 hours incubation
Overview of recorded EC50 for various molecules
Kindly provide the numeric value in nM only, without the unit symbol.

Answered cases to consult:
{"Smiles Structure": "CCOC(=O)C1(C2CCCCC2)CCN(C(=O)[C@@H](Cc2ccc(OC)cc2)NC(=O)NCCCc2cnc[nH]2)CC1", "Target System": "hMC1-R (Homo sapiens, UniProt Q01726)", "EC50 / nM": 500}
{"Smiles Structure": "CCOC(=O)C1(C2CCCCC2)CCN(C(=O)[C@@H](Cc2ccc(Cl)cc2Cl)NC(=O)NCCc2c[nH]cn2)CC1", "Target System": "hMC1-R (Homo sapiens, UniProt Q01726)", "EC50 / nM": 1000}
{"Smiles Structure": "CCOC(=O)C1(C2CCCCC2)CCN(C(=O)[C@@H](Cc2ccc(OC)cc2)NC(=S)NCCc2cn(C)cn2)CC1", "Target System": "hMC1-R (Homo sapiens, UniProt Q01726)", "EC50 / nM": 1000}
{"Smiles Structure": "CCCC(=O)C1(C2CCCCC2)CCN(C(=O)[C@@H](Cc2ccc(OC)cc2)NC(=O)NCCc2cn(C)cn2)CC1", "Target System": "hMC1-R (Homo sapiens, UniProt Q01726)", "EC50 / nM": 1000}

Turning now to a further molecule:
IN: I'd like to know its EC50. The molecule in question is "CCOC(=O)C1(C2CCCCC2)CCN(C(=O)[C@@H](Cc2ccc(OC)cc2)NC(=S)NCCCc2c[nH]cn2)CC1"
OUT: 1000
